# experiment_summary: FT-IR degree of polymerization in a pigmented composition (as sensitizer of Esacure 1001)
# condition_description: 0.5% sensitizer, 3% Esacure 1001, 3% Esacure A 198, cyan ink, 3 μm film; 1 sec
Catalogue of % degree of polymerization after 1 sec values

INSERT INTO results (compound, reported_value) VALUES
  ('CC(C)c1ccc2sc3ccccc3c(=O)c2c1 [ITX, isopropyl thioxanthone, reference compound]', '19.6%');

**Q:** // fetch % degree of polymerization after 1 sec given entry C=CCOC(=O)c1ccc2c(=O)c3cc(C)ccc3sc2c1
**A:** 20.6%

**Q:** // fetch % degree of polymerization after 1 sec given entry Cc1ccc2sc3cc(C(=O)N(CC(C)C)CC(C)C)ccc3c(=O)c2c1
**A:** 22.3%

**Q:** // fetch % degree of polymerization after 1 sec given entry CCCCCCCCCCCCOC(=O)c1ccc2c(=O)c3cc(C)ccc3sc2c1
**A:** 17.8%
